# Protocol: PAMPA permeability, brain total lipid extract (BTLE) membrane
# Condition parameters: Brain total lipid extract membrane, n=3
Measurement label: Mean logPe

Sample answers from the record:
[[record]]
compound = "CN1C(C(=O)Nc2ccccn2)=C(O)c2ccccc2S1(=O)=O [piroxicam]"
measurement_label = "Mean logPe"
experimental_result = -5.45

[[record]]
compound = "CC(C)c1nc(N(C)S(C)(=O)=O)nc(-c2ccc(F)cc2)c1/C=C/[C@@H](O)C[C@@H](O)CC(=O)O [rosuvastatin]"
measurement_label = "Mean logPe"
experimental_result = "< -6.33"

[[record]]
compound = "N=C(N)c1ccc(OCCCOc2ccc(C(=N)N)cc2)cc1 [propamidine]"
measurement_label = "Mean logPe"
experimental_result = "< -6.13"

[[record]]
compound = "NC(=O)Cc1cccc(C(=O)c2ccccc2)c1N [nepafenac]"
measurement_label = "Mean logPe"
experimental_result = -4.61

[[record]]
compound = "NC(N)=Nc1nc(CSCCC(N)=NS(N)(=O)=O)cs1 [famotidine]"
measurement_label = "Mean logPe"
experimental_result = "< -6.47"

[[record]]
compound = "CC(CCc1ccccc1)NCC(O)c1ccc(O)c(C(N)=O)c1 (stereo not shown) [labetalol]"
measurement_label = "Mean logPe"
experimental_result = -4.83


Shift focus to the following entry.
# input Give reported Mean logPe value for O=C1CN=C(c2ccccc2)c2cc([N+](=O)[O-])ccc2N1 [nitrazepam]
# output -4.47
